- measurement target: nuclear receptor TLX (NR2E1) ligand-binding domain (Homo sapiens (Human))
- Sequence (Q9Y466 155-383): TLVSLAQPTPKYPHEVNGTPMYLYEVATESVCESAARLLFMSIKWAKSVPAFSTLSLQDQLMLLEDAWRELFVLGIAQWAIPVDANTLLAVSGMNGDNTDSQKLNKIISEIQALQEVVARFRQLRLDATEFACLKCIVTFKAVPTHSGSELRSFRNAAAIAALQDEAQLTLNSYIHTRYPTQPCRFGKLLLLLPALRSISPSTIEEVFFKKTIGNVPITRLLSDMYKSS
- test: AlphaScreen assay detecting TLX-RIP140 NR box peptide interaction
- Assay type: biochemical
- condition notes: his-tagged TLX LBD, biotinylated RIP140-L6 peptide recruitment
outcome measure: Efficacy (fold increase) (fold)
Report only the number, with the unit fold understood.

compound=CCC[C@@H](C)/C=C(/C)C/C(C)=C/[C@H](C)CCCCCCCC(=O)O quantitative_readout=6.2
compound=CCCCC[C@H](C)/C=C(/C)C/C(C)=C/[C@@H](C)CCCCCC(=O)O quantitative_readout=6.0
compound=CCCCCCCC/C=C(/C)C/C(C)=C/[C@@H](C)CCCC(=O)O quantitative_readout=6.6
compound=CCCCCCCCCC/C=C(/C)C/C(C)=C/[C@H](C)CC(=O)O quantitative_readout=6.1
compound=CCCCCCCC/C=C(/C)C/C(C)=C/[C@H](C)CCCC(=O)O quantitative_readout=6.6

stdin: Quick one: Efficacy (fold increase) for CCCCCCC[C@H](C)/C=C(/C)C/C(C)=C/[C@@H](C)CCCC(=O)O ?
stdout: 6.1

stdin: Quick one: Efficacy (fold increase) for CCCCCCCCC[C@@H](C)/C=C(/C)C/C(C)=C/[C@H](C)CC(=O)O ?
stdout: 6.8

stdin: Quick one: Efficacy (fold increase) for CCCCCCCC/C=C\CCCCCCCC(=O)O [Oleic Acid, oleic acid, reference compound] ?
stdout: 8.4

stdin: Quick one: Efficacy (fold increase) for CCCCCC/C=C(/C)C/C(C)=C/[C@H](C)CCCCCC(=O)O ?
stdout: 6.5
